Please respond with reported IC50 for every item in the list.
system: HCT116 KO-MTAP cells; experiment: Cell proliferation assay (Alamar Blue), MTAP KO cells; type: cell-based; conditions: Homo sapiens, HCT-116, 120 h; HCT116 MTAP KO, 5 days; read-out: Cell proliferation IC50 (μM) (MTAP KO)
Give bare numbers, in µM.

Guide cases for IC50, answers given:
C#CCN1CC[C@@]2(C1=O)c1ccc(F)cc1C(=O)N2Cc1cc2nc(N)c(F)cc2[nH]1 [Example 3]	0.32
CN1CC[C@@]2(C1=O)c1ccc(F)cc1C(=O)N2Cc1cc2nc(N)c(F)cc2[nH]1 [Example 10]	1.6
CC1(CN2CC[C@@]3(C2=O)c2ccc(F)cc2C(=O)N3Cc2cc3nc(N)cc(C#N)c3[nH]2)CC1 [Example 26]	0.29
Nc1nc2cc(CN3C(=O)c4cc(F)ccc4[C@]34CCN(Cc3ccc(F)cc3)C4=O)[nH]c2cc1F [Example 1]	0.16
Nc1nc2cc(CN3C(=O)c4cc(F)ccc4[C@]34CCN(CC(F)F)C4=O)[nH]c2cc1F [Example 8]	1.9

For every item below, please supply its IC50.
1. Nc1nc2cc(CN3C(=O)c4cc(F)ccc4[C@]34CCN(CCOC(F)(F)F)C4=O)[nH]c2cc1Cl [Example 27]
2. Cc1cc(N)nc2[nH]c(CN3C(=O)c4cc(F)ccc4[C@]34CCN(Cc3cc(F)c(F)cc3F)C4=O)cc12 [Example 28]

RESULT:
0.36
0.13

* * *

test system: HCT116 KO-MTAP cells; assay: PRMT5 cell SDMA assay, MTAP KO cells; assay type: cell-based; settings: Homo sapiens, HCT-116, read-out: Cell SDMA IC50, MTAP knock out HCT116 cells
parameter: pIC50
Answers are plain numbers, as −log10 of the molar value.

QUERY: What does the record list as pIC50 for Nc1nc2cc(CN3C(=O)c4cc(F)ccc4[C@]34CCN(Cc3ccc(F)cc3)C4=O)[nH]c2cc1F [Example 1] ?
RESULT: 8.28
